Biological target: Factor Xa (Homo sapiens, UniProt P00742)
Sequence (P00742 235-488 limits assumed): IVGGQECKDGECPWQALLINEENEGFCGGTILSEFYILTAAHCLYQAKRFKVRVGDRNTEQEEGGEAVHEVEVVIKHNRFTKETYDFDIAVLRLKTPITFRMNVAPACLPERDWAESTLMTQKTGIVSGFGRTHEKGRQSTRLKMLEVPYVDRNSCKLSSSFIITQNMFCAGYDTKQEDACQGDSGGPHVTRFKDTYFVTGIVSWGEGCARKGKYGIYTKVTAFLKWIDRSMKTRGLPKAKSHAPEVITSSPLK
Sequence (P00742 41-179 partner limits assumed): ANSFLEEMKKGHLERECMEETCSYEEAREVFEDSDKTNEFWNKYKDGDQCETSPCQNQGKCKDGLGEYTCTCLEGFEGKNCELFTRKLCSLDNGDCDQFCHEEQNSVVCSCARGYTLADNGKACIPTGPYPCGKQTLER
pIC50: −log10 of the molar value.
measured_property: pIC50

compound=COC(=O)N[C@](CCC(=O)O)(Cc1cccc(C(=N)N)c1)C(=O)NCC(=O)N[C@H](C=O)CCCNC(=N)N measurement="< 5.60"
compound="COC(=O)CCC(N)(Cc1cccc(C(=N)N)c1)C(=O)NCC(=O)NC(C=O)CCCNC(=N)N (centres unmarked)" measurement="< 5.60"
compound=CCNC(=O)N[C@](CCC(=O)O)(Cc1cccc(C(=N)N)c1)C(=O)NCC(=O)N[C@H](C=O)CCCNC(=N)N measurement="< 5.60"
compound=COC(=O)N[C@](CCC(=O)O)(Cc1cccc(C)c1)C(=O)N[C@@H](C)C(=O)N[C@H](C=O)CCCNC(=N)N measurement="< 5.60"

Field: next compound
Entry "CC(=O)N[C@](CCC(=O)O)(Cc1cccc(C(=N)N)c1)C(=O)NCC(=O)N[C@H](C=O)CCCNC(=N)N" , pIC50 reported as < 5.60
